System: Cryptococcus neoformans
Conditions: Concentration 20 uM; ASSAY_TEST Inhibition of Fungal Growth; detection method Resazurin; Absorption (OD600-OD570); plate type 384well; NBS; CORNING #3640
Description: Antifungal activity against Cryptococcus neoformans H99 ATCC 208821 (CO-ADD:FG_002); MIC in YNB media using NBS plates, by Resazurin OD(600-570)
Entries with a potency or affinity are not part of this list.
quantity name: Inhibition (%)
Enter your answer as a number in %; do not include the unit.

Example cases with answers are listed next.
O=C(O)CCc1nc(-c2ccccc2)c(-c2ccccc2)o1 [OXAPROZIN]: -4.51
CC(C)c1ccc2c(c1)c(SC(C)(C)C)c(CC(C)(C)C(=O)O)n2Cc1ccc(Cl)cc1: -9.17

// Inhibition lookup, molecule = CC1Cc2ccccc2N1NC(=O)c1ccc(Cl)c(S(N)(=O)=O)c1 (stereo not drawn) [INDAPAMIDE] , result: -0.18

// Inhibition lookup, molecule = `CC[C@H]1OC(=O)[C@H](C)C(=O)[C@H](C)[C@@H](O[C@@H]2O[C@H](C)C[C@H](N(C)C)[C@H]2O)[C@](C)(OC)C[C@@H](C)C(=O)[C@H](C)[C@@H]2N(CCCCn3cnc(-c4cccnc4)c3)C(=O)O[C@@]21C` , result: -1.28

// Inhibition lookup, molecule = CC(CCc1ccccc1)NCC(O)c1ccc(O)c(C(N)=O)c1.Cl (stereo not drawn) [LABETALOL HYDROCHLORIDE] , result: -9.04

// Inhibition lookup, molecule = CC1=Nc2ccc(Cl)cc2S(=O)(=O)N1 [DIAZOXIDE] , result: -6.19

// Inhibition lookup, molecule = CNCCCC12CCC(c3ccccc31)c1ccccc12.Cl [MAPROTILINE HYDROCHLORIDE] , result: -10.89

// Inhibition lookup, molecule = CC(C)NCC(O)c1ccc(NS(C)(=O)=O)cc1.Cl (stereo not drawn) [SOTALOL HYDROCHLORIDE] , result: 3.23

====

System: Candida albicans
Conditions: 20 µM
Description: Antifungal activity against Candida albicans ATCC 90028 (CO-ADD:FG_001); MIC in YNB media using NBS plates, by OD630
Entries with a potency or affinity are not part of this list.
quantity name: Inhibition (%)
Enter your answer as a number in %; do not include the unit.

// Inhibition lookup, compound = CCc1c(C)[nH]c2c1C(=O)C(CN1CCOCC1)CC2.Cl (stereo not drawn) [MOLINDONE HYDROCHLORIDE] , result: 3.99

// Inhibition lookup, compound = O=C(CCNNC(=O)c1ccncc1)NCc1ccccc1 [NIALAMIDE] , result: 4.06

// Inhibition lookup, compound = `Cl.Cn1c(NCCN(CCO)CCCc2ccc([N+](=O)[O-])cc2)cc(=O)n(C)c1=O` , result: 4.73

// Inhibition lookup, compound = `CC=CC(=O)N(CC)c1ccccc1C` , result: 0.3

// Inhibition lookup, compound = CCc1cc(C(N)=S)ccn1 [ETHIONAMIDE] , result: 1.99

// Inhibition lookup, compound = CN(C)CCC(c1ccc(Cl)cc1)c1ccccn1.O=C(O)/C=C\C(=O)O (stereo not drawn) [CHLORPHENIRAMINE MALEATE] , result: 4.73

// Inhibition lookup, compound = Cn1nnc2c(C(N)=O)ncn2c1=O [TEMOZOLOMIDE] , result: 1.91

// Inhibition lookup, compound = CCCOc1ccc(C(=O)OCCN(CC)CC)cc1N.Cl [PROPARACAINE HYDROCHLORIDE] , result: 0.55

====

Recorded Inhibition values for a group of compounds are listed next.
Test system: Cryptococcus neoformans
Conditions: Concentration 20 uM; ASSAY_TEST Inhibition of Fungal Growth; detection method Resazurin; Absorption (OD600-OD570); plate type 384well; NBS; CORNING #3640
Entries with a potency or affinity are not part of this list.
Enter your answer as a number in %; do not include the unit.

COc1ccccc1OCC(O)CN1CCN(CC(=O)Nc2c(C)cccc2C)CC1.Cl.Cl (stereo not drawn) [RANOLAZINE HYDROCHLORIDE]: -5.35
CCCCC(=O)O[C@H]1CC[C@H]2[C@@H]3CCc4cc(O)ccc4[C@H]3CC[C@]12C [ESTRADIOL VALERATE]: 2.38
NS(=O)(=O)c1cc2c(cc1C(F)(F)F)NC(Cc1ccccc1)NS2(=O)=O (stereo not drawn) [BENDROFLUMETHIAZIDE]: -1.07
COc1ccccc1OCC(O)COC(N)=O (stereo not drawn): -8.85
Br.CN(C)CCCC1(c2ccc(F)cc2)OCc2cc(C#N)ccc21 (stereo not drawn) [CITALOPRAM HYDROBROMIDE]: -12.2

// Inhibition lookup, compound = O=C(C1CCCCC1)N1CC(=O)N2CCc3ccccc3C2C1 (stereo not drawn) , result: -0.79

// Inhibition lookup, compound = C[n+]1ccccc1/C=N/O.[Cl-] [PRALIDOXIME CHLORIDE] , result: -2.73

// Inhibition lookup, compound = `COc1ccc2c(c1)c(CC(=O)O)c(C)n2C(=O)c1ccc(Cl)cc1.O` , result: 1.93
